Please provide measured k/KI (kirr/KI) for the entries that follow.
- Measurement target: Cathepsin B from human placenta (Homo sapiens)
- Construct: Cathepsin B from human placenta, obtained from Sigma; purchased Sigma; host or cells: human placenta (tissue)
- Test: Inhibition of cathepsin B, Z-Arg-Arg-AMC fluorescence progress curves
- Assay type: biochemical
- Condition notes: values without asterisk; 25° C., pH 6.2
Peptide text beside a SMILES is read from it. * marks the point of attachment. X1 = CS(=O)(=O)C=CC(CC(=O)O)N*

-- ask If you can, please state the reported k/KI (kirr/KI) value of Br.NCCCC[C@@H](/C=C/S(=O)(=O)c1ccccc1)NC(=O)[C@H](Cc1ccccc1)NC(=O)N1CCOCC1 [Mu-Phe-LysVSPh.HBr] .
-- reply 11,700 M^-1 sec^-1

-- ask Moving on to Br.Br.N=C(N)NCCC[C@@H](/C=C/S(=O)(=O)c1ccccc1)NC(=O)[C@H](CCCNC(=N)N)NC(=O)N1CCOCC1 [Mu-Arg-ARgVSPh.2HBr]
-- reply 26 M⁻¹ s⁻¹

-- ask Moving on to CC(=O)NC(Cc1ccc(O)cc1)C(=O)NC(Cc1ccc(O)cc1)C(=O)NC(C(=O)NC(C)C(=O)NC(C=CS(C)(=O)=O)CC(=O)O)C(C)C (stereo not drawn) [Ac-Tyr-Tyr-Val-Ala-AspVSMe] (Ac-YYVA-X1; configuration not given here)
-- reply 0 M⁻¹ s⁻¹

-- ask Moving on to CC(C)(C)OC(=O)C[C@@H](/C=C/S(C)(=O)=O)NC(=O)OC(C)(C)C [Boc-Asp(O-tBu)VSMe]
-- reply 0 M⁻¹ s⁻¹

-- ask Moving on to CCCC[C@@H](/C=C/S(=O)(=O)c1ccccc1)NC(=O)[C@H](CC(C)C)NC(=O)[C@H](CC(C)C)NC(C)=O [Ac-Leu-Leu-NleVSPh]
-- reply 0 M⁻¹ s⁻¹

-- ask Moving on to Br.CCOC(=O)/C=C/[C@H](CCCNC(=N)N)NC(=O)[C@H](Cc1ccccc1)NC(=O)N1CCOCC1 [Mu-Phe-ArgVEOEt.HBr]
-- reply 8200 M⁻¹ s⁻¹

====

- Measurement target: cruzain, from T. cruzi (Trypanosoma cruzi)
- Sequence (P25779 123-337 limits assumed): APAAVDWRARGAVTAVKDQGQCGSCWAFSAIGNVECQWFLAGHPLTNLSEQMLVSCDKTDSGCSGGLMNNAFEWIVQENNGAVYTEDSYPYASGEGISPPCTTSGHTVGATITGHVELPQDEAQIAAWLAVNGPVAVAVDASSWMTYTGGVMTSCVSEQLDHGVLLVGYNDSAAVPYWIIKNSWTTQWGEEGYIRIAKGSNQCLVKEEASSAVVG
- Test: Inhibition of cruzain, as for cathepsin L
- Assay type: biochemical
- Condition notes: values marked *
Readout: kobs /[I]* (approximate second-order inactivation constant)

-- ask If you can, please state the reported kobs /[I]* (approximate second-order inactivation constant) value of Br.NCCCC[C@@H](/C=C/S(=O)(=O)c1ccccc1)NC(=O)[C@H](Cc1ccccc1)NC(=O)N1CCOCC1 .
-- reply 149,000 M^-1 sec^-1

-- ask Moving on to O=C(NCCCC[C@@H](/C=C/S(=O)(=O)c1ccccc1)NC(=O)[C@H](Cc1ccccc1)NC(=O)N1CCOCC1)c1ccccc1
-- reply 60,000 M^-1 sec^-1

-- ask Moving on to O=C(N[C@H](/C=C/S(=O)(=O)c1ccccc1)CCc1ccccc1)C(Cc1cc(I)c(O)c(I)c1)NC(=O)N1CCOCC1 (stereo partly drawn)
-- reply 114,000 M^-1 sec^-1

====

- Measurement target: cruzain, from T. cruzi (Trypanosoma cruzi)
- Test: Inhibition of cruzain, as for cathepsin L
- Type: biochemical
- Condition notes: values marked *
Please provide measured kobs /[I]* (approximate second-order inactivation constant) for the entries that follow.

-- ask If you can, please state the reported kobs /[I]* (approximate second-order inactivation constant) value of CS(=O)(=O)/C=C/[C@H](CCc1ccccc1)NC(=O)[C@H](Cc1ccccc1)NC(=O)N1CCOCC1 .
-- reply 22,000 M^-1 sec^-1

-- ask Moving on to CC(Cc1ccccc1)(NC(=O)N1CCOCC1)C(=O)N[C@H](/C=C/S(=O)(=O)c1ccccc1)CCc1ccccc1 (mixture of isomers)
-- reply 18,100 M^-1 sec^-1

-- ask Moving on to Br.Br.N=C(N)NCCC[C@@H](/C=C/S(=O)(=O)c1ccccc1)NC(=O)[C@H](CCCNC(=N)N)NC(=O)N1CCOCC1
-- reply 2,100 M^-1 sec^-1

-- ask Moving on to Cl.NC(Cc1ccccc1)C(=O)NC(C=CS(=O)(=O)c1ccccc1)CCc1ccccc1 (stereo not shown) [HCl.Phe-HphVSPh]
-- reply 14,600 M^-1 sec^-1

====

- Measurement target: Cloned cathepsin S (Homo sapiens)
- Construct: made in house
- Test: Inhibition of cathepsin S, Z-Val-Val-Arg-AMC fluorescence progress curves
- Assay type: biochemical
Please provide measured kirr for the entries that follow.
Expressed in s⁻¹, but write only the number.

-- ask If you can, please state the reported kirr value of O=C(N[C@H](/C=C/S(=O)(=O)c1ccccc1)CCc1ccccc1)C(Cc1ccccc1)NC(=O)N1CCOCC1 (some centres unmarked) [Mu-Phe-HphVSPh] .
-- reply 0.085

-- ask Moving on to CCOP(=O)(C/C=C/[C@H](CCc1ccccc1)NC(=O)[C@H](Cc1ccccc1)NC(=O)N1CCOCC1)OCC [Mu-Phe-HphVPEt]
-- reply 0.40

-- ask Moving on to CC(Cc1ccccc1)(NC(=O)N1CCOCC1)C(=O)N[C@H](/C=C/S(=O)(=O)c1ccccc1)CCc1ccccc1 (mixture of isomers) [Mu-DL-Fam-HphVSPh]
-- reply 0.54

-- ask Moving on to O=C(NCCCC[C@@H](/C=C/S(=O)(=O)c1ccccc1)NC(=O)[C@H](Cc1ccccc1)NC(=O)N1CCOCC1)OCc1ccccc1 [Mu-Phe-Lys(Z)VSPh]
-- reply 0.14

-- ask Moving on to CC(C)C[C@H](NC(=O)N1CCOCC1)C(=O)N[C@H](/C=C/S(=O)(=O)c1ccccc1)CCc1ccccc1 [Mu-Leu-HphVSPh]
-- reply 0.16

====

- Measurement target: Cathepsin L from rat liver (Rattus norvegicus, UniProt P07154)
- Construct: Cathepsin L from rat liver; from tissue; host or cells: rat liver
- Sequence (P07154 114-288 limits assumed): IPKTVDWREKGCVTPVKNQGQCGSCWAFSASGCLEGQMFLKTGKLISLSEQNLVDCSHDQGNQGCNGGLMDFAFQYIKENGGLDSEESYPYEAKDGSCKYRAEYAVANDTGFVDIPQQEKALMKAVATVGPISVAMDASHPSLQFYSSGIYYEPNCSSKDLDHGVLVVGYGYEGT
- Sequence (P07154 291-334 limits assumed): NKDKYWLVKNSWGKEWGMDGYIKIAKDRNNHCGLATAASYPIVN
- Test: Inhibition of cathepsin L, Z-Phe-Arg-AMC fluorescence progress curves
- Assay type: biochemical
- Condition notes: corrected for substrate; listed as Mu-Phe-Hph-VSPh
Readout: pKi
Would you please state pKi, meaning minus log10 of the concentration in mol/L, as a bare number?

-- ask Report pKi for O=C(N[C@H](/C=C/S(=O)(=O)c1ccccc1)CCc1ccccc1)C(Cc1ccccc1)NC(=O)N1CCOCC1 (stereo partly shown) [Mu-Phe-HphVSPh] tested on Cathepsin L from rat liver (Rattus norvegicus, UniProt P07154).
-- reply 5.96

====

- Measurement target: Cloned cathepsin S (Homo sapiens, UniProt P25774)
- Construct: made in house
- Sequence (P25774 115-331): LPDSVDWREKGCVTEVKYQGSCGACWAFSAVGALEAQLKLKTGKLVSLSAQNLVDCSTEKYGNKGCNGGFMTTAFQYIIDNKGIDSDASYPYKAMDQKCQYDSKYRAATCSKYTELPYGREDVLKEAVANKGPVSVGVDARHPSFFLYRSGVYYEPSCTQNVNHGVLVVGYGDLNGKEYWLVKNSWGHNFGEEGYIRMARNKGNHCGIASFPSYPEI
- Test: Inhibition of cathepsin S, Z-Val-Val-Arg-AMC fluorescence progress curves
- Assay type: biochemical
- Condition notes: values marked *; 25° C., pH 6.5
Readout: kobs /[I]* (approximate second-order inactivation constant)

-- ask If you can, please state the reported kobs /[I]* (approximate second-order inactivation constant) value of O=C(N[C@@H](/C=C/S(=O)(=O)c1ccccc1)CCc1ccccc1)C(Cc1ccccc1)NC(=O)N1CCOCC1 (stereo partly shown) .
-- reply 68,500 M^-1 sec^-1

-- ask Moving on to O=C(NCCCC[C@@H](/C=C/S(=O)(=O)c1ccccc1)NC(=O)[C@H](Cc1ccccc1)NC(=O)N1CCOCC1)c1ccccc1
-- reply 2,500,000 M^-1 sec^-1

-- ask Moving on to CCCC[C@@H](/C=C/S(=O)(=O)c1ccccc1)NC(=O)[C@H](Cc1ccccc1)NC(=O)N1CCOCC1
-- reply 2,300,000 M^-1 sec^-1

-- ask Moving on to Br.NCCCC[C@@H](/C=C/S(=O)(=O)c1ccccc1)NC(=O)[C@H](Cc1ccccc1)NC(=O)N1CCOCC1
-- reply 10,700,000 M^-1 sec^-1

====

- System: calpain
- Test: Inhibition (inactivation) of calpain, Suc-Leu-Tyr-AMC
- Assay type: biochemical
- Condition notes: values without asterisk; pH 7.5, 5 mM CaCl2, 25° C.
Readout: k/KI (kirr/KI) (M⁻¹ s⁻¹)
Expressed in M⁻¹ s⁻¹, but write only the number.

-- ask If you can, please state the reported k/KI (kirr/KI) value of CC(=O)N[C@@H](Cc1ccc(O)cc1)C(=O)N[C@H](C(=O)N[C@@H](C)C(=O)NC(/C=C/S(=O)(=O)c1ccccc1)CC(=O)O)C(C)C (stereo partly drawn) [Ac-Tyr-Val-Ala-AspVSPh] .
-- reply 0

-- ask Moving on to CC(C)(C)OC(=O)C[C@@H](/C=C/S(C)(=O)=O)NC(=O)OC(C)(C)C [Boc-Asp(O-tBu)VSMe]
-- reply 0

-- ask Moving on to CC(Cc1ccccc1)(NC(=O)N1CCOCC1)C(=O)N[C@H](/C=C/S(=O)(=O)c1ccccc1)CCc1ccccc1 (mixture of isomers) [Mu-DL-Fam-HphVSPh]
-- reply 0

====

Please provide measured percentage inhibition, T. brucei for the entries that follow.
- Tested on: Trypanosoma brucei extracellular bloodstream forms
- Test: In vitro antiprotozoal activity, Trypanosoma brucei
- Format: cell-based
- Condition notes: 30 uM
Expressed in %, but write only the number.

-- ask If you can, please state the reported percentage inhibition, T. brucei value of Br.N=C(N)NCCC[C@@H](/C=C/S(=O)(=O)c1ccccc1)NC(=O)[C@H](Cc1ccccc1)NC(=O)N1CCOCC1 .
-- reply 0

-- ask Moving on to O=C(NCCCC[C@@H](/C=C/S(=O)(=O)c1ccccc1)NC(=O)[C@H](Cc1ccccc1)NC(=O)N1CCOCC1)OCc1ccccc1 [Mu-Phe-Lys(Z)VSPh]
-- reply 100

-- ask Moving on to CS(=O)(=O)/C=C/[C@@H](N)Cc1ccccc1.Cl [HCl.PheVSMe]
-- reply 0

-- ask Moving on to O=C(N[C@H](/C=C/S(=O)(=O)c1ccccc1)CCc1ccccc1)C(Cc1ccccc1)NC(=O)N1CCOCC1 (stereo partly drawn)
-- reply 100

-- ask Moving on to Cl.NC(C=CS(=O)(=O)c1ccccc1)CCCCNC(=O)OCc1ccccc1 (stereo not drawn) [HCl.(e-Z)LysVSPh]
-- reply 100

-- ask Moving on to CC(C)C[C@H](NC(=O)N1CCOCC1)C(=O)N[C@H](/C=C/S(=O)(=O)c1ccccc1)CCc1ccccc1
-- reply 84.7
